Provenance of the data: PubChem BioAssay AID1159580

Procedure details: chemical genetic growth profiling, strain panel (AID 1159580);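 further: tested at 20 µM; growth read once vehicle control cultures reached saturation at 30 °C; 1 = growth at the plate median or of vehicle wells; lower values mean less growth of the strain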
Protocol conditions: S. cerevisiae deletion strains, growth OD, locus YBR229C, strain ROT2
Among all 5,500 compounds or so, about 2,000 (36%) were called active. Not shown: some 18% with an inconclusive outcome. No stated cut-off is given here; in the data, active means normalized growth mostly below about 0.91 (no sharp cut-off); inconclusive means no clear call, values can overlap the other calls; inactive means mostly above about 0.92. This is one part of the list.
Classes to choose from: active, inactive

Lookup: Hi, do you know how CCN1CN=C(SCc2ccc(Br)cc2)NC1 came out in this test?
Found: inactive

Lookup: Hi, do you know how NC(=O)N[C@@H]1O[C@H](CO)[C@@H](O)[C@H](O)[C@H]1O came out in this test?
Found: inactive

Lookup: Hi, do you know how COc1ccc2oc3ccccc3c(=O)c2c1 came out in this test?
Found: active

Lookup: Hi, do you know how FC(F)(F)c1ccc2[nH]c(=S)[nH]c2c1 came out in this test?
Found: inactive

----------
Procedure details: chemical genetic growth profiling, strain panel (AID 1159580);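 further: tested at 20 µM; growth read once vehicle control cultures reached saturation at 30 °C; 1 = growth at the plate median or of vehicle wells; lower values mean less growth of the strain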
Protocol conditions: S. cerevisiae deletion strains, growth OD, locus YKL101W, strain HSL1, active compounds read low
The campaign covered roughly 5,500 compounds. About 2,000 (36%) were called active. About 18% were inconclusive and are not listed. Some of the results follow.
Consider the following compounds; for each one, report its normalized growth.
Could you respond with only the numeric value?

Lookup: normalized growth for Clc1ccccc1-c1csc(-c2cccnc2)n1 ?
Found: 0.9

Lookup: normalized growth for N#Cc1cccc(CSc2nc3ccc(C(F)(F)F)cc3[nH]2)c1 ?
Found: 0.901

Lookup: normalized growth for O=C(Oc1ccc2ccccc2c1C1SCCS1)c1ccc([N+](=O)[O-])o1 ?
Found: 0.894

Lookup: normalized growth for N#CC(C#N)=Cc1c(-c2ccccc2Cl)[nH]c2ccccc12 ?
Found: 0.899

----------
Consider the following compounds; for each one, report its normalized growth.
Procedure details: chemical genetic growth profiling, strain panel (AID 1159580);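 further: tested at 20 µM; growth read once vehicle control cultures reached saturation at 30 °C; 1 = growth at the plate median or of vehicle wells; lower values mean less growth of the strain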
Protocol conditions: S. cerevisiae deletion strains, growth OD, locus YNL067W, strain RPL9B, active compounds read low
The campaign covered roughly 5,500 compounds. About 2,000 (36%) were called active. Not shown: some 18% with an inconclusive outcome. This is one part of the list.

Lookup: normalized growth for CC(=O)O[C@@H]1CC2C(C)(C)[C@@H](O)CC[C@]2(C)C2CC[C@@]3(C)[C@H](c4ccoc4)OC(=O)[C@H]4O[C@]43[C@@]21C (some centres not stated) ?
Found: 1.05 (inactive)

Lookup: normalized growth for NCC[C@@H](O)C(=O)N[C@@H]1C[C@H](N)[C@@H](O[C@H]2O[C@H](CN)[C@@H](O)[C@H](O)[C@H]2O)[C@H](O)[C@H]1O[C@H]1O[C@H](CO)[C@@H](O)[C@H](N)C1O (some centres not stated) ?
Found: 0.992 (inactive)

Lookup: normalized growth for CC1[C@H](C)OC(=O)CC(O)CC(O)CC(O)CCC(O)C(O)C[C@]2(O)CC(O)C(C(=O)O)C(CC(OC3O[C@H](C)[C@@H](O)[C@H](N)[C@@H]3O)/C=C/C=C/C=C/C=C/CC/C=C/C=C/[C@H](C)[C@H]1O)O2 (some centres not stated) ?
Found: 0.0572 (active)

Lookup: normalized growth for CCN1C[C@@]2(COC)C3[C@@H](OC)[C@H]4[C@@H]1[C@]3(C(OC)C[C@H]2O)C1C[C@@]2(O)[C@H](OC(=O)c3ccccc3)C1[C@]4(OC(C)=O)[C@@H](O)[C@@H]2OC (some centres not stated) ?
Found: 1.04 (inactive)

Lookup: normalized growth for NCCCCNCCCN ?
Found: 0.972 (inactive)

Lookup: normalized growth for CC1(C)C(=O)[C@@H]2O[C@@H]2[C@@]2(C)C1C[C@@H](O)[C@]1(C)C2CC[C@@]2(C)[C@H](c3ccoc3)OC(=O)C3OC321 (some centres not stated) ?
Found: 0.982 (inactive)

Lookup: normalized growth for C=NC(C(=O)NC1C(=O)N2C1SC(C)(C)C2C(=O)O)c1ccccc1 (configuration not stated) ?
Found: 0.996 (inactive)

Lookup: normalized growth for CC(=O)O[C@@H]1CC2C(C)(C)[C@H](O)CC[C@]2(C)C2CC[C@@]3(C)[C@H](c4ccoc4)OC(=O)C4OC43[C@@]21C (some centres not stated) ?
Found: 1.02 (inactive)

Lookup: normalized growth for COc1c(C)c2c(c(O)c1C/C=C(\C)CCC(=O)O)C(=O)OC2 ?
Found: 0.782 (active)

Lookup: normalized growth for CC(=O)O[C@H]1C[C@@H](OC(C)=O)C(C)(C)C2C[C@@H](O)[C@]3(C)C(CC[C@@]4(C)[C@H](c5ccoc5)OC(=O)[C@H]5O[C@]543)[C@]21C (some centres not stated) ?
Found: 1.03 (inactive)

Lookup: normalized growth for CC(=O)O[C@]1(C)CC[C@@]23CC1C(C)(C)[C@@H]2CC[C@H]3C ?
Found: 0.969 (inactive)

Lookup: normalized growth for CC(=O)O[C@@H]1CC2C(C)(C)C(=O)C3OC3[C@]2(C)C2CC[C@@]3(C)[C@H](c4ccoc4)OC(=O)C4OC43[C@@]21C (some centres not stated) ?
Found: 0.997 (inactive)
